Listed here are molecules together with their documented IC50.
- Tested on: Hemozoin
- Assay Notes: Inhibition of beta-hematin in water/NP40/DMSO solution incubated for 5 to 6hrs by detergent-mediated pyridine-ferrichrome method

| Smiles Data | IC50 |
| --- | --- |
| O=C(Nc1ccncc1)c1ccc([N+](=O)[O-])cc1 | > 5.5 mM |
| Cc1ccc(C(=O)Nc2ccncc2)cc1 | > 5.5 mM |
| O=C(Nc1ccncc1)c1ccc([N+](=O)[O-])cc1[N+](=O)[O-] | > 5.5 mM |
| O=C(Nc1ccccc1)c1ccccc1[N+](=O)[O-] | > 1 mM |
| CC(C)(C)c1cc(C(=O)Nc2ccccc2)cc(C(=O)Nc2ccccc2)c1 | > 1 mM |
| O=C(Nc1ccncc1)c1ccccc1 | > 5.5 mM |
